The values you see were collected from ChEMBL document CHEMBL5291721.

- subject_of_test: Alpha-2C adrenergic receptor (Homo sapiens)
- Sequence (P18825 whole entry): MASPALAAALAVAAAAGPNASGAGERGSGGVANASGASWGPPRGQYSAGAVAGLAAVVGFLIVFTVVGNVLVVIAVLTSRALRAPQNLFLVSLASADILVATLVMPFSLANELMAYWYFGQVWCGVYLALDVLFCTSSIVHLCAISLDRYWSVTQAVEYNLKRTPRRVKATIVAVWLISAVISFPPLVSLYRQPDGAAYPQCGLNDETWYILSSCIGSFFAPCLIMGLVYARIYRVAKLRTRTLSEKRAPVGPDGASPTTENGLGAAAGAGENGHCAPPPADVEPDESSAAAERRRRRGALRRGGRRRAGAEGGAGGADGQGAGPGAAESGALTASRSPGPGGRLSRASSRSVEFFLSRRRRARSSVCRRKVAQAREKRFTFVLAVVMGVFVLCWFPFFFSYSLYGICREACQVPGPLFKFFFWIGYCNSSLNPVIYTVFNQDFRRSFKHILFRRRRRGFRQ
- Type: functional
measurement_label: AC50

Solved entries (count: 7):
{"compound": "OC1(c2ccc(Cl)cc2)c2ccccc2C2=NCCN21 (stereo not drawn) [MAZINDOL]", "measurement_label": "AC50", "result": "> 30 µM"}
{"compound": "O=C(O)c1ccccc1Nc1cc(Cl)ccc1C(=O)O [LOBENZARIT]", "measurement_label": "AC50", "result": "> 30 µM"}
{"compound": "Nc1ccc(S(=O)(=O)Nc2nccs2)cc1 [SULFATHIAZOLE]", "measurement_label": "AC50", "result": "> 10 µM"}
{"compound": "CCCCCC(=O)O[C@]1(C(C)=O)CC[C@H]2[C@@H]3CCC4=CC(=O)CC[C@]4(C)[C@H]3CC[C@@]21C [HYDROXYPROGESTERONE CAPROATE]", "measurement_label": "AC50", "result": "> 30 µM"}
{"compound": "CCN1CCN(Cc2ccc(Nc3ncc(F)c(-c4cc(F)c5nc(C)n(C(C)C)c5c4)n3)nc2)CC1 [ABEMACICLIB]", "measurement_label": "AC50", "result": "> 30 µM"}
{"compound": "C/C(=C\\C(=O)OCCCCCCCCC(=O)O)C[C@@H]1OC[C@H](C[C@@H]2O[C@H]2[C@@H](C)[C@H](C)O)[C@@H](O)[C@H]1O [MUPIROCIN]", "measurement_label": "AC50", "result": "> 10 µM"}
{"compound": "CC(=O)SC[C@@H](C)C(=O)N1CCC[C@H]1C(=O)N[C@@H](Cc1ccccc1)C(=O)O", "measurement_label": "AC50", "result": "> 30 µM"}

// next item, AC50 requested
Q. Consider the compound shown here: C[C@H](Cc1ccc(O)c(O)c1)[C@@H](C)Cc1ccc(O)c(O)c1 [MASOPROCOL] What is its recorded AC50?
A. > 30 µM
